Reference source for all entries: patent US20240216352A1

Test system: healthy participants
protocol-details: Phase 1 Part B multiple ascending dose (MAD): blood pressure
Type: in vivo, human
assay-conditions: MAD 10 mg QD, D 14 320 h
observable: Mean DBP

In [3]: df
Out[3]:
                                   compound  target_or_test_system  observable  reported_measurement
0  CCCN(C)C(=O)OCc1c(-c2ccc(O[C@H]3CCC[C@H](C(=O)O)C3)c(C)n2)nnn1C [Compound A]   healthy participants    Mean DBP             67.5 mmHg

----------
Tested on: healthy participants
protocol-details: Phase 1 Part B multiple ascending dose (MAD): blood pressure
Format: in vivo, human
assay-conditions: MAD 125 mg BID, D 1 4 h
observable: Mean DBP

                            compound_smiles  reported_measurement
0  CCCN(C)C(=O)OCc1c(-c2ccc(O[C@H]3CCC[C@H](C(=O)O)C3)c(C)n2)nnn1C             64.7 mmHg
